biological target: T1, HER2 (human epidermal growth factor receptor 2) on cells (human, UniProt P04626 23-1255); assay: flow cytometry (Cy5), BT-474 cells, 1 h, conjugate at 6 mM (so in the source)
T1 construct: whole, on cells; also called ERBB2; HER2 receptor
test readout: MFI
Numbers only.

{"columns": ["binder", "value"],
 "data": [
  ["[[(ε-NHCO-PEG1100)8(α-NHDOTA)4.75(α-NHCy5)0.5(α-NH2)2.75][Lys]8[Lys]4[Lys]2[Lys]-CONH-CH2-CH2-S-]2MAL-PEG3-NHCO-PEG24-CONH-PEG4-(PhTzMe)/TCO-PEG3-NHCO-PEG24-Glu … (VHH, # (unnatural amino acid, p-azido-phenylalanine, after ...QVTVSS) clicked to the DBCO of SRS-20a (linker Compound 51 on dendrimer SRS-4-Mal: maleimide core, Cy5, DOTA, PEG1100)) VHH: EVQLVESGGSLVQPGGSLRLSCAASGFTFDDYAMSWVRQVPGKGLEWVSSINWSGTHTDYADSVKGRFTISRNNANNTLYLQMNSLKSEDTAVYYCAKNWRDAGTTWFEKSGSAGQGTQVTVSS", 2170]
]}

Record [(ε-NHCO-PEG1100)16(α-DOTA)7(α-NHCy5)1(α-NH2)8][Lys]16[Lys]8[Lys]4[Lys]2[Lys]-(PN)NCO-PEG24-CONH-PEG4-(PhTzMe)/TCO-NHCO-PEG24-(MAL)Me/Cys-Nanobody SRS-17 (VHH, the additional cysteine (in …) coupled to the methylmaleimide of linker SRS-12 (intermediate SRS-14), whose TCO is joined to the tetrazine of dendrimer HH-2 (1 Cy5, 7 DOTA, 16 PEG1100)) VHH: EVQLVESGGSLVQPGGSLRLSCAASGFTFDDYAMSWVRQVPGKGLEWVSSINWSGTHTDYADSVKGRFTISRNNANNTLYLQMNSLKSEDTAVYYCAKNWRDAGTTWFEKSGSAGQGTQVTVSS . Reported MFI: 1530
